Parameter: GI50. Scope: all listed entries.
Test system: MOLT-4 leukemia
method notes: NCI tumour cell line growth inhibition, 48 h
measurement name: GI50

smiles_entry=CCC(=O)N1C/C(=C/c2ccc(Br)cc2)C(=O)/C(=C/c2ccc(Br)cc2)C1 subject_of_test="MOLT-4 leukemia" reported_result="1060 nM"
smiles_entry=CC(=O)/C(Br)=C/c1ccc(Br)o1 subject_of_test="MOLT-4 leukemia" reported_result="3030 nM"
smiles_entry=CCN(CC)CCN1c2nc3ccccc3cc2Sc2cc3ccccc3nc21 subject_of_test="MOLT-4 leukemia" reported_result="2310 nM"
smiles_entry=Cc1nc2sc3c(N)ncnc3c2c(C)c1C subject_of_test="MOLT-4 leukemia" reported_result="> 25000 nM"
smiles_entry=COc1cc2c3c(n(CCCNCCCNCCN)c(=O)c2cc1OC)-c1cc2c(cc1C3=O)OCO2 subject_of_test="MOLT-4 leukemia" reported_result="10900 nM"
smiles_entry=Nc1ncc(-c2ccc3ncnc(N4CCc5ccc(Cl)cc54)c3c2)cc1C(F)(F)F subject_of_test="MOLT-4 leukemia" reported_result="1630 nM"
smiles_entry=CN(C)Cc1ccc(NC(=O)c2cncc(C#Cc3cnc(N)c4ncccc34)c2)cc1F subject_of_test="MOLT-4 leukemia" reported_result="2210 nM"
smiles_entry=O=C1C=C(OCC=C(C(F)(F)F)C(F)(F)F)c2ccccc2C1=O subject_of_test="MOLT-4 leukemia" reported_result="2350 nM"
smiles_entry=Oc1[nH]c2ccccc2c1/C=c1/ccc2c(c1)N=C(c1ccc(C(F)(F)F)cc1)N=2 subject_of_test="MOLT-4 leukemia" reported_result="1670 nM"
smiles_entry=N#Cc1nc(C#N)c(Sc2ccccc2)c(Sc2ccccc2)c1Sc1ccccc1 subject_of_test="MOLT-4 leukemia" reported_result="317 nM"

---

Parameter: TGI. Scope: all listed entries.
System: SK-OV-3 ovarian
method notes: NCI tumour cell line growth inhibition, 48 h
measurement name: TGI

compound="NC(Cc1c[nH]c2ccc([N+](=O)[O-])cc12)C(=O)O (stereo not given)" subject_of_test="SK-OV-3 ovarian" reported_result="> 100 µM"
compound=Nc1nc(Cl)c2ncn(Cc3cccc(CCl)c3)c2n1 subject_of_test="SK-OV-3 ovarian" reported_result="50.8 µM"
compound=CS(=O)(=O)c1ccc2nc(-c3ccc(O)cc3)sc2c1 subject_of_test="SK-OV-3 ovarian" reported_result="31.3 µM"
compound="Nc1nc(N)c2ncn(CCOC(c3ccccc3)P(=O)(O)O)c2n1 (stereo not given)" subject_of_test="SK-OV-3 ovarian" reported_result="> 100 µM"
compound=O=[N+]([O-])c1cc(N=Nc2c(O)ccc3cc(S(=O)(=O)O)ccc23)c(O)c([N+](=O)[O-])c1 subject_of_test="SK-OV-3 ovarian" reported_result="> 100 µM"

---

System: SF-295 CNS
method notes: NCI tumour cell line growth inhibition, 48 h
measurement name: GI50

smiles_entry=CNC(=O)c1c(F)cccc1Nc1nc(Nc2cc3c(cc2OC)CCN3C(=O)CN(C)C)nc2[nH]ccc12 reported_result="19 µM"
smiles_entry=O=C1C=C(OCC=C(C(F)(F)F)C(F)(F)F)c2ccccc2C1=O reported_result="14.6 µM"
smiles_entry=Oc1[nH]c2ccccc2c1/C=c1/ccc2c(c1)N=C(c1ccc(C(F)(F)F)cc1)N=2 reported_result="2.7 µM"

Origin of measurements: PubChem BioAssay (NCI)
